- Test: MTT-based cytotoxicity assay, C8166
- Type: cell-based
- Condition notes: human; C8166, MTT, 3 days; read-out: CC50
Measured endpoint: CC50 at 3 days

Compound	Measured endpoint	Assay value
CC[C@@]1(O)C(=O)OCc2c1cc1n(c2=O)Cc2cc3cc(O)ccc3nc2-1 [Compound 2, 10-hydroxycamptothecin]	CC50 at 3 days	0.141 µg/mL

====

- Test: MTT-based cytotoxicity assay, PBMC
- Type: cell-based
- Condition notes: human, PBMC (peripheral blood mononuclear cells), PHA-stimulated; PBMC, MTT; read-out: CC50

Compound	Unit descriptor	CC50 at 3 days
CC[C@@]1(O)C(=O)OCc2c1cc1n(c2=O)Cc2cc3ccccc3nc2-1 [Compound 1, Camptothecin]	µg/mL	0.0759
